Attribute: pKi
target: Bifunctional dihydrofolate reductase-thymidylate synthase (Plasmodium vivax); test: Inhibitor Screening Using Bacterial System (IC50) and Measurement of Inhibition Constant (Ki); settings: pH 7; 25 °C
Sequence (O02604 whole entry): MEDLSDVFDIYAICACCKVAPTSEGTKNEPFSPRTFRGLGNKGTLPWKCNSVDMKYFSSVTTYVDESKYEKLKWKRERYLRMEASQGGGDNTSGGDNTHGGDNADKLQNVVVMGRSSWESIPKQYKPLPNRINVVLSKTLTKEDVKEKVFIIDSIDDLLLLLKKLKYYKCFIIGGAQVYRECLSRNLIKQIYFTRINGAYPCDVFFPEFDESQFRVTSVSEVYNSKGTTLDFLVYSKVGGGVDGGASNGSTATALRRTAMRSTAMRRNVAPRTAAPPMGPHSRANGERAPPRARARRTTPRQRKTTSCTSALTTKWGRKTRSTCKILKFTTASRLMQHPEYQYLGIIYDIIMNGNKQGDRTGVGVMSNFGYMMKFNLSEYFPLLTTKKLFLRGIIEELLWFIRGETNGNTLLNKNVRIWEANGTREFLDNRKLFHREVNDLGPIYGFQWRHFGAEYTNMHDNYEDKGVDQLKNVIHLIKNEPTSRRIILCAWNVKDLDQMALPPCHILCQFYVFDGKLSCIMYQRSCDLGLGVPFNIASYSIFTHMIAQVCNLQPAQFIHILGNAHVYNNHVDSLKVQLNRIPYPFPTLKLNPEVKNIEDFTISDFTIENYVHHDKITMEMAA
pKi: −log10 of the molar value.

molecularString | pKi
CCc1nc(N)nc(N)c1-c1ccc(C(C)(C)C)cc1 | 8.94
Nc1nc(N)c(-c2cccc(Cl)c2)c(CCOCCCOc2ccccc2)n1 | 9.20
Cc1nc(N)nc(N)c1-c1ccc(Cl)cc1 | 9.11
CC(C)Cc1nc(N)nc(N)c1-c1ccc(Cl)cc1 | 8.85
Cc1nc(N)nc(N)c1-c1cccc(Cl)c1 | 9.16
CCc1nc(N)nc(N)c1-c1ccc(Br)cc1 | 9.11
COC(=O)CCCc1nc(N)nc(N)c1-c1ccc(Cl)cc1 | 9.16
Nc1nc(N)c(-c2cccc(Cl)c2)c(CCCc2ccccc2)n1 | 9.11
CCc1nc(N)nc(N)c1-c1ccc(OC)cc1 | 9.00
